- Method Summary: yeast display, Sf9 membrane polyspecificity reagent, FACS + sequencing; frameworks hold sequencing errors
Outcome Measure: polyreactivity (PSR sort gate)

Here is how some sequences turned out for polyreactivity (PSR sort gate).
QVQLVESGGGLVQAGGSLRLSFAASGRIFDYNVMGWYRQAPGKERELVADITSSGGATYYADSVKGRFTNSRDNAKNTVYLQMNSLKPEDTAVYYCYISYFTFYDDFYYWGQGTQVTVSS    low polyreactivity
QVQLVESGGGLVQAGGSLRLSCAASGRIIRWYAMGWYRQAPGKERELVAAISGSGGSTYYADSVKGRFTISRDNAKNTVYLQMNSLKPEDTAVYYCAAAYYRDSDRRYNYWGQGTQVTVSS    high polyreactivity
QVQLVESGGGLVQPGGSLRLSCAASGSTFIEYSMGWYRQAPGKERELVATIRGTGSTNYADSVKGRFTISRDNAKNTVYLQMNSLKPEDTAVYYCMKKPDPRWYYWGDYWGQGTQVTVSS    low polyreactivity
QVQLVDSGGGLVQAGGSLRLSCAASGRIFRSYAMGWYRQAPGKERELVAGISSTGGNTYYADSVKGRFTISRDNAKNTVYLQMNSLKPEDTAVYYCAAYWFRGYKYWGQGTQVTVSS    high polyreactivity
QVQLVESGGGLVQAGGSLRLSCAASGRTFGRYAMGWYRQATGKERELVAAISTGGRTYYADSVKGRFTISRDNAKNTVYLQMNSLKPEDTEVYYCNRVVVVGILEMGYWGQGTQVTVSS    low polyreactivity

Task: # input sequence: QVQIVESGGGLVQAAGSLRLSCAASGSTLAPYAMGWYRQAPGKERELVASINWGGTTTYYADSVKGRFTNSRDNAKNKVYLQMNSLKPEDTAVYYCAALGLSWGRSGYYYEYYYWGQGTQVTVSS ; wanted: its polyreactivity (PSR sort gate)
Output: high polyreactivity

Task: Query QVQLIESGGGLVQAGGSLRLSCAASGIIFYDYAMGWYRQAPGKERELVATITSGGSTNYADSVKGRFTISRDNAKNTVYLQMNSLKPEDTAVYYCAAGRGLILGGVYGYDYWGQGTQVTVSS next
Output: low polyreactivity

Task: Param item: QVQLVESGGGLVQAGGSLRLSCAASGSIFAVYAMGWYRQAPGKERELVATISGRGGSTYYADSVKVRFTISRDNAKNTVYLQMNSLKPEDTAVYYCNARVLFRRERMDSWGQGTKVTVSS
Output: high polyreactivity

Task: Record: QVQLVESGGGLVQAGGSLRLSCAASGFIFHFNAMGWYRQAPGKERELVAAISRTGGTTYYADSVKGRFTISRDNAKNTVYLQMNSLKPEVTAVYYCAAYSTYVQHYDYWGQGTQVTVSS
Output: high polyreactivity

Task: And the next one, QVQLVESGGGLVQAGGSLRLSCAASGRTFRGNAMGWYRQAPGKERELVAAISRSGGTTYYADSVKGRFTISRDNAKNTVYLQMNSLKPEDTAVYYCNRGWATWHGPDDYWGQGTQVTVSS ?
Output: high polyreactivity

Task: Repeat for the following sequence: QVQLVESGGGLLQAGGSLRLSCAASGFNFGRYAMGWYRQAPGKERELVATISRSGGSTYYADSVKGRFTISRDNSKNTVFLQMNSLKPEDTAVYYCNALILPTKMGYWGQGTQVTVSS
Output: low polyreactivity
